B1: BCL2L13 (parent)
chain: YIIQQGGWGTVFSLESEEEEYPGI

# Variants of: B1
# protocol-notes: protein stability index of a GFP-peptide fusion (GPS, HEK-293T) (PSI 1-6); higher = more stable;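 further: lentivirally expressed fusions sorted by FACS into six bins by GFP to DsRed ratio, PSI derived from sequencing read proportions per bin multiplied by bin number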
# condition-label: c terminus: a fixed tail appended
recorded-metric: protein stability index

biopolymer_sequence="YIIQQGGWGPVFSLESEEEEYPGI [T10P]" obs_value=1.07
biopolymer_sequence="YLIQQGGWGTVFSLESEEEEYPGI [I2L]" obs_value=2.76
biopolymer_sequence="YIIQQGGWGTVQSLESEEEEYPGI [F12Q]" obs_value=1.24
biopolymer_sequence="YAIQQGGWGTVFSLESEEEEYPGI [I2A]" obs_value=1.96
biopolymer_sequence="YIIQQGGWGTVPSLESEEEEYPGI [F12P]" obs_value=1.58
biopolymer_sequence="YRIQQGGWGTVFSLESEEEEYPGI [I2R]" obs_value=2.42
biopolymer_sequence="YIIQQGGQGTVFSLESEEEEYPGI [W8Q]" obs_value=3.93
biopolymer_sequence="NIIQQGGWGTVFSLESEEEEYPGI [Y1N]" obs_value=4.12
biopolymer_sequence="YIIQQGGWGTVFSLESEEEEYPGP [I24P]" obs_value=2.14
biopolymer_sequence="YIIQQGGWGTVFSLESEDEEYPGI [E18D]" obs_value=1.96
biopolymer_sequence="YIIQQGGWGTVFSLESEEEEYEGI [P22E]" obs_value=2.22
biopolymer_sequence="TIIQQGGWGTVFSLESEEEEYPGI [Y1T]" obs_value=3.75
biopolymer_sequence="YIIQQGGWGTVFSLESEEEEYPLI [G23L]" obs_value=2.01
biopolymer_sequence="YIIQQGGWGTVFSLECEEEEYPGI [S16C]" obs_value=3.01
biopolymer_sequence="YIIQQGGWGTVFSLESEEEEYYGI [P22Y]" obs_value=1.38
biopolymer_sequence="YIIQQWGWGTVFSLESEEEEYPGI [G6W]" obs_value=1.14
